- system: EPHB2 (UniProt P29323)
- Sequence (P29323 whole entry, looked up): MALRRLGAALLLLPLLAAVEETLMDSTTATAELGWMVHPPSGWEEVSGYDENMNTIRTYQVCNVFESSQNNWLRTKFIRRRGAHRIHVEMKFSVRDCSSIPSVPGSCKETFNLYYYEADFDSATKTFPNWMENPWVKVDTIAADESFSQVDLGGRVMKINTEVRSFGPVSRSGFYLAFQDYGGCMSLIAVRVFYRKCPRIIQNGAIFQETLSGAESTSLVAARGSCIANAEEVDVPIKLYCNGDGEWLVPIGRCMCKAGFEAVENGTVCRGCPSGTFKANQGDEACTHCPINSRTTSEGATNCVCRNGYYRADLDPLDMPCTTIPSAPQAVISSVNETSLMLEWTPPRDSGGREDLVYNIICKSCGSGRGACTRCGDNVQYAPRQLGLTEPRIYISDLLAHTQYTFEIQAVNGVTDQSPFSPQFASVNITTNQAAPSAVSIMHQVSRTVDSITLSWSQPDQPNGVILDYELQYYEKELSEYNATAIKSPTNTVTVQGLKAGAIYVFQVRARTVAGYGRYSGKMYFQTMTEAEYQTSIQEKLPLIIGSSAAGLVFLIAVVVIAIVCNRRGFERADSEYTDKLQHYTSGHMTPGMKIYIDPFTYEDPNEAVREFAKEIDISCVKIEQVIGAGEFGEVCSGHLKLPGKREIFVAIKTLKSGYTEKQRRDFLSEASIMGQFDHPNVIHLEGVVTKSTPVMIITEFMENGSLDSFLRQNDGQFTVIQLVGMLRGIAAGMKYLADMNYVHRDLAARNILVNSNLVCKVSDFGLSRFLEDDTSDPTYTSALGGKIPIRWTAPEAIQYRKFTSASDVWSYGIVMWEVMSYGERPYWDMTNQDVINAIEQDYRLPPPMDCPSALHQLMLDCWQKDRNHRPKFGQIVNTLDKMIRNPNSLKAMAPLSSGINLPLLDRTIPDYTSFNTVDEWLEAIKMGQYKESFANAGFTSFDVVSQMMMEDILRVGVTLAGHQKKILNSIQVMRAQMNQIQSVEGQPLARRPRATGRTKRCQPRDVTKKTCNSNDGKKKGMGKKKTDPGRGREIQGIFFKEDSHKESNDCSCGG
- assay text: phosphorylation enrichment, bacterial display (enrichment ratio); higher = better substrate or ligand; peptides without Tyr show the background;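 further: 11-residue human phosphosite peptides and single-mutation variants displayed on the E. coli surface, counted by deep sequencing, each peptide's frequency after selection divided by its frequency in the unselected input library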;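 further: frequency after pTyr selection over input frequency; kinase dosed for 20-30% of maximal phosphorylation in three min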
Exercise: for every item that follows, state its recorded phosphorylation enrichment.

ordered residues	measured endpoint	result
LHRAHYDLRHT [AHSG_Y314]	phosphorylation enrichment	0.78

// for each sequence in input: emit phosphorylation enrichment
1. RHFSSYSQMEN [PKP1_Y120_R116H]
2. TNGFTCGSSHQ [MANEA_Y331_Y331C]
3. RQQQDYWLMDV [ANPEP_Y600_I603M]
4. AHAGEYGEEAL [HBA1_Y25_A27E]
5. GLGVTYEQALA [MAP2_Y996]
6. DENRFYTRAAS [RPS19_Y54_W52R]
7. GGKFSYLKVGH [GRM3_Y480_YF]

Result string:
[0.768, 0.486, 3.72, 0.736, 0.471, 0.478, 0.368]

Go through the list and state phosphorylation enrichment for each entry.
1. EFFDGYWEFSV [ITGA2B_Y265_G267E_YF]
2. GFILMYDITNE [RAB3C_Y110]
3. RRYLYYYSYLL [PTEN_Y177_V175L]
4. MSGDVYSTDYY [NTRK2_Y702_R699G]
5. NFDRIYIFHLR [MYOF_Y1137_V1136I_YF]
6. YRNKPYISWPS [CDC42BPB_Y1638_S1633Y]

Result string:
[0.577, 1.6, 0.91, 1.99, 0.705, 0.461]

###

- system: Jak2 (UniProt O60674)
- Sequence (O60674 whole entry, looked up): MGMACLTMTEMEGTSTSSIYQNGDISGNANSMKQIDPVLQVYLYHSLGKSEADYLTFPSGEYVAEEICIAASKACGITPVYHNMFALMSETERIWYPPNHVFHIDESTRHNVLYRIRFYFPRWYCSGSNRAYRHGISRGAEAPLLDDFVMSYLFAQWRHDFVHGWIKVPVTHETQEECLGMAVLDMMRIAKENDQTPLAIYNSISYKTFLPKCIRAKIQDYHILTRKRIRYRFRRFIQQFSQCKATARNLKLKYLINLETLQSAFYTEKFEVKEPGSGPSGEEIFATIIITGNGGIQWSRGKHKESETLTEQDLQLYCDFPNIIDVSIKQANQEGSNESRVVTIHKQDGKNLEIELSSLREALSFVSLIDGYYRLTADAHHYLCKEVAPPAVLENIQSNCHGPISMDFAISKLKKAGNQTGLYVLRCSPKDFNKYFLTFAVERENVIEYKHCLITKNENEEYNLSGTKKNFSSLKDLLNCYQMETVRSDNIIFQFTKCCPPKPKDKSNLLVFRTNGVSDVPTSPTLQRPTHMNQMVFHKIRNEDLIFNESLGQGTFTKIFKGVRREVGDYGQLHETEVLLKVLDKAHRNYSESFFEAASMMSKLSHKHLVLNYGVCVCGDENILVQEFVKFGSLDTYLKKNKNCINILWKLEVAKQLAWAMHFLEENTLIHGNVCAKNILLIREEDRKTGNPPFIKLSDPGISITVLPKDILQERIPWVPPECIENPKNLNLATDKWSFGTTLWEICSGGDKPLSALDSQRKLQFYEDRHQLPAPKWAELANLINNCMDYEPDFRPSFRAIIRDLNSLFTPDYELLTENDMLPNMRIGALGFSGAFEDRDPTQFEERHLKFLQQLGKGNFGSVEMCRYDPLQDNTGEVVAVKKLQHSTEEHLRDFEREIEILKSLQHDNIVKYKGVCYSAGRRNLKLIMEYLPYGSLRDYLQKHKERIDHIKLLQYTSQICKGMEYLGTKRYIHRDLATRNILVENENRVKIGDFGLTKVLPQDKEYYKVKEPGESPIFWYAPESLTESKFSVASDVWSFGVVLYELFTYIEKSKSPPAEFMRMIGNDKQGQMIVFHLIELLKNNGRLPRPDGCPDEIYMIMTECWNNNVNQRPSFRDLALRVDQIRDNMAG
- assay text: phosphorylation enrichment, bacterial display (enrichment ratio); higher = better substrate or ligand; peptides without Tyr show the background
Threshold check on phosphorylation enrichment: at or above 0.9 gives 1, strictly below gives -1.

ordered residues	class assignment
KDFTIYNPNLL [VANGL1_Y290]	-1
PVVKLYATEGR [RP1_Y199_D202E]	-1
HFPFQYHRQLF [F12_Y53_YF]	-1
NHQFDYTFHWT [CSNK1A1_Y294_D297H_YF]	1
IRDLKYTIENP [SND1_Y178]	1

Query string: Please check the record KKARAYRPGIE [FLNA_Y287_G288R] and state if its phosphorylation enrichment is at or above 0.9.
Result string: -1

Query string: Exam item: decide whether the reported phosphorylation enrichment for KAWTIYRPEDS [ZBP1_Y165] is at least 0.9.
Result string: 1

Query string: Could you verify whether the entry ERCAQYKKDGA [ALDOA_Y138] shows phosphorylation enrichment of no less than 0.9?
Result string: -1

Query string: Hi, just wondering whether SSEYHCVGGFY [CTSC_Y347_Y347C] shows phosphorylation enrichment of 0.9 or higher.
Result string: 1

Query string: Exam item: decide whether the reported phosphorylation enrichment for IENKLYGMSDP [RET_Y1062] is at least 0.9.
Result string: -1

Query string: Say whether QFLMMYVWSAS [ABCD1_Y337_K336M] shows phosphorylation enrichment of 0.9 or more.
Result string: 1

###

- system: EPHB1 (UniProt P54762)
- Sequence (P54762 whole entry, looked up): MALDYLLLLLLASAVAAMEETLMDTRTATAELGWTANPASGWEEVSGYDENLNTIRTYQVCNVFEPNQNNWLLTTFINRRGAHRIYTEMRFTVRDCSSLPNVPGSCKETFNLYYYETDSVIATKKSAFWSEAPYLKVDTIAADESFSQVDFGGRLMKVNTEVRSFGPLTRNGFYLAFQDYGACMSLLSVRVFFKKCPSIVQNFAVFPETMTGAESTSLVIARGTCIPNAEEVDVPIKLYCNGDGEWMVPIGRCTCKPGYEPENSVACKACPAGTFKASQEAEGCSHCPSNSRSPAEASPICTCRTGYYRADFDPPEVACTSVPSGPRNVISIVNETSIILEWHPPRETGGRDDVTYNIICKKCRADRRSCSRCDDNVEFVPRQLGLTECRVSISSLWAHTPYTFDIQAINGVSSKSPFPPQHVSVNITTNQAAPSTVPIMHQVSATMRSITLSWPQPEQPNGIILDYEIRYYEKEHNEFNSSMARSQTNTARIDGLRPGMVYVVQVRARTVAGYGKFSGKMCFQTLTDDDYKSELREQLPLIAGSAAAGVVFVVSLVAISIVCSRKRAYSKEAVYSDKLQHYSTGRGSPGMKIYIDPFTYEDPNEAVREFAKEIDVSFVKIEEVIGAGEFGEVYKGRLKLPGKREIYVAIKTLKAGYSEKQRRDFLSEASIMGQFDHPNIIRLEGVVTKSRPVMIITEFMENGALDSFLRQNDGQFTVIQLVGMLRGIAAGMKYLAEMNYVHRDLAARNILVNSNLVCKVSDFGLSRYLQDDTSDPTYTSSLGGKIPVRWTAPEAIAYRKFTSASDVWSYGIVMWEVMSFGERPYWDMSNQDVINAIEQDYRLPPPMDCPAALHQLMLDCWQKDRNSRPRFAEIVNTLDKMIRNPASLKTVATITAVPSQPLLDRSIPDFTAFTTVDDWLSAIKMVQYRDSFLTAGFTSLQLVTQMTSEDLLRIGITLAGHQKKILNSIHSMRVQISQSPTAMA
- assay text: phosphorylation enrichment, bacterial display (enrichment ratio); higher = better substrate or ligand; peptides without Tyr show the background
measured endpoint: phosphorylation enrichment
Numbers only.

Past entries and their recorded results:
ordered residues	system	measured endpoint	result
LLVVLNKYRCY [PSEN1_Y154_Y154N]	EPHB1 (UniProt P54762)	phosphorylation enrichment	1.03
KRISCYEARYQ [PFKFB3_Y194_S197R]	EPHB1 (UniProt P54762)	phosphorylation enrichment	0.466
EFQLPYFNTVP [BMPR1A_Y457_M460T_YF]	EPHB1 (UniProt P54762)	phosphorylation enrichment	0.523
CTTIHQNYMCN [TP53_Y234_Y234Q]	EPHB1 (UniProt P54762)	phosphorylation enrichment	0.536
VMTSKYRGGGG [HBA1_Y141_L137M]	EPHB1 (UniProt P54762)	phosphorylation enrichment	0.332

Dear reader, for each entry below, please note its phosphorylation enrichment.
1. VDASYYGGRGV [ANTXR2_Y381]
2. IEENGYNTYAS [FGF10_Y161]
3. MSLDQYSPSFP [FGFR1_Y776_P772S]
4. QAEEWYFGKMG [YES1_Y159]

Result string:
[0.708, 0.534, 0.374, 0.498]
